K. pneumoniae (ATCC 700603) measurements of MIC, listed per entry.

Example entries and their recorded answers appear below.
[[record]]
molecule = "Cn1cccc1C(=O)C=Cc1ccc(-c2ccc([N+](=O)[O-])cc2)o1"
recorded_value = "200 µg/mL"

[[record]]
molecule = "Cn1cccc1C(=O)C=Cc1ccc(-c2cccc([N+](=O)[O-])c2)o1"
recorded_value = "200 µg/mL"

[[record]]
molecule = "Cn1cccc1C(=O)C=Cc1ccc(-c2cc(Cl)ccc2Cl)o1"
recorded_value = "200 µg/mL"

[[record]]
molecule = "O=C(N[C@H](CO)[C@H](O)c1ccc([N+](=O)[O-])cc1)C(Cl)Cl [Chloramphenicol, reference compound]"
recorded_value = "50 µg/mL"

[[record]]
molecule = "Cn1cccc1C(=O)C=Cc1ccc(-c2ccccc2Cl)o1"
recorded_value = "200 µg/mL"

[[record]]
molecule = "Cn1cccc1C(=O)C=Cc1ccc(-c2cccc(Cl)c2)o1"
recorded_value = "200 µg/mL"

[[record]]
molecule = "Cn1cccc1C(=O)C=Cc1ccc(-c2ccc(Cl)cc2)o1"
recorded_value = "100 µg/mL"

[[record]]
molecule = "Cn1cccc1C(=O)C=Cc1ccc(-c2ccccc2[N+](=O)[O-])o1"
recorded_value = "200 µg/mL"

[[record]]
molecule = "Cn1cccc1C(=O)C=Cc1ccc(-c2ccc(Cl)cc2Cl)o1"
recorded_value = "200 µg/mL"

[[record]]
molecule = "Cn1cccc1C(=O)C=Cc1ccc(-c2ccc(Cl)cc2[N+](=O)[O-])o1"
recorded_value = "100 µg/mL"


As a next step, examine the molecule that follows.
## Task Which MIC value belongs to `Cn1cccc1C(=O)C=Cc1ccc(-c2ccc(Cl)c(Cl)c2)o1` ?
## Result 200 µg/mL
